Measured growth, listed per entry.
# System: NCI-H522 lung
# protocol: NCI-60 one-dose screen, 48 h (100 = growth as untreated, 0 = no growth, -100 = all killed)
# run.parameters: 10 µM unless noted
About 83,000 compounds went through this panel and 20% of them were active in at least one assay; those are over-represented in the sample as a whole.

compound	growth, %
COc1ccc(OC)c(/C=C2\Oc3cc(OCCN4CCCC4)ccc3C2=O)c1	103
CCN(Cc1ccc(CN(CC)C(=O)C(Cl)(Cl)Cl)cc1)C(=O)C(Cl)(Cl)Cl	74
Cc1ccc2c(c1)ncn2-c1ncnc2c1CC(C)c1ccccc1N2C (configuration not stated)	-22.8
NC(N)=NC(N)=Nc1ccccc1-c1ccccc1	106
NC(=O)c1c(NC(=O)c2ccc(OCC3CCCO3)cc2)sc2c1CCCC2 (configuration not stated)	87.3
CC(=O)Nc1ccc2c(c1)/C(=C\C=C/c1ccc([N+](C)(C)C)cc1)c1ccccc1-2	18.1
Cc1nn(-c2ccc(Cl)cc2)c(=O)n1CCOc1ccccc1Cl	116
O=c1oc2cc(OS(=O)(=O)c3ccccc3)c(Cl)cc2c2c1CCCCCC2	73.2
C#CCN1C(=O)/C(=c2\sc3n(c2=O)C2C(NN=3)N(CC)C(=O)N2CC)c2ccccc21 (configuration not stated)	25
CC(Br)C(Br)c1cc2c(cc1Br)OCO2 (configuration not stated)	87.2
Nc1ccccc1C#C/C=C\C#Cc1cccc(O)c1	52.9
CCC#CC[C@H]1C/C=C2/C(=O)C=C[C@@H]2C/C=C\CCCC(=O)O1	-29
COc1ccc(/C=C/C(=O)c2ccc(NC(=O)CN3CCN(c4cc5c(cc4F)c(=O)c(C(=O)O)cn5C4CC4)CC3)cc2)cc1	111
Nc1c(C(=O)Nc2ccccc2)sc2nc3c(cc12)CCCCC3	30.2
CCN(Cc1ccccc1)c1ccc(SC#N)cc1	-26.7
O=C(O)Cc1ccc2c(c1)Cc1cccnc1O2	95.7
O=C(Nc1ccc(F)c(Cl)c1)c1n[nH]c(=O)c2ccccc12	99.6
CNC(C)=O	89
Cc1cccc2cc(/C=C/C(=O)/C=C/c3ccc(Cl)cc3)c(=O)[nH]c12	48.4
CSc1ccccc1C#C/C=C\C#Cc1ccccc1N1CCCC1=O	70.5
O=C(O)c1ccc(-n2cc(CNc3ccc(C(F)(F)F)cc3)c(-c3ccccc3)n2)cc1	94.3
CCNC(=O)C1CCCN1C(=O)C(CCCN=C(N)N)NC(=O)C(CC(C)C)NC(=O)C(CC(C)C)NC(=O)C(Cc1ccc(O)cc1)NC(=O)C(CO)NC(=O)C(Cc1c[nH]c2ccccc12)NC(=O)C(Cc1cnc[nH]1)NC(=O)C1CCC(=O)N1 (configuration not stated)	74.1
COc1ccc(/C=C/c2cc(N3CCOCC3)c3cc(F)c(F)cc3n2)cc1OC	7.5
O=C1CCCCC=C1C[N+](=O)[O-]	-12.3
CCn1cc(C(=O)O)c(=O)c2cc(F)c(N3CCN(S(=O)(=O)c4ccc(Cl)cc4Cl)CC3)cc21	-75.8
ClC1=C(Cl)C(Cl)=C(Cl)C1=Cc1ccc(Cl)cc1Cl	-22.8
COc1ccc(-c2nc3sccn3c2-c2ccnc(NCCCNS(=O)(=O)c3ccc(C)cc3)n2)cc1	21.4
COC1=CC(c2ccc[nH]2)=N/C1=C\c1[nH]c(C)c(C(=O)CCCCC(=O)NCc2ccccc2)c1C	-33.5
O=C1CCC(=O)N1Cc1ccccc1	102
O=C(CNc1c(Cl)cccc1Cl)Nc1ccc(-c2nc3ccccc3s2)cc1	-93.4
COc1cc2nc(Cl)nc(NCCO)c2cc1OC	100
CCCCCCCCCCC/C=C\C[C@H](O)C/C=C1/C(=O)C=C[C@@H]1C/C=C\CCCC(=O)OC	-41.9
Nc1c(C(=O)c2ccc(F)cc2)sc2nc3c(cc12)CCCC3	-2.9
Cc1cccc(NC(=O)c2sc3nc4c(cc3c2N)CCC4)c1C	-16.5
O=C1Nc2cc(Cl)ccc2/C1=C/c1ccc(N2CCOCC2)s1	101
CC(Cc1nnc(SCC(=O)Nc2ccc(I)cc2)n1N)c1ccccc1 (configuration not stated)	82.8
c1ccn2nnnc2c1	101
COC1=CC(c2ccc[nH]2)=N/C1=C\c1[nH]c(C)c(CCCn2cc(CCCCCCCCC[C@@H]3Cc4cc(O)ccc4C4CC[C@]5(C)[C@@H](O)CC[C@H]5C43)nn2)c1C (some centres not stated)	24.5
CN(C)c1nc(N)c(N=O)c(N)n1	106
CCc1c(C(=O)Nc2ccc3ccccc3c2)[nH]c(C)c1C(C)=O	68.7
Cc1sc2nc(CSc3nnc(-c4ccco4)o3)[nH]c(=O)c2c1C	104
C=CC(=O)N[C@H](/C=C/C(=O)OCC)Cc1ccc(-c2cc(Cl)cc(Cl)c2)cc1	51.1
